The reader will find reported protein stability index values listed item by item below.
B1: MLL5 (parent)
chain: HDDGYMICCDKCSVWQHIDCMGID

# Variants of: B1
# Assay method text: protein stability index of a GFP-peptide fusion (GPS, HEK-293T) (PSI 1-6); higher = more stable;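 also: lentivirally expressed fusions sorted by FACS into six bins by GFP to DsRed ratio, PSI derived from sequencing read proportions per bin multiplied by bin number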
# Protocol conditions: c terminus: a fixed tail appended
Lab note: write the figure by itself, no unit.

# Sequence variant, Readout value
data = [
    ("I18F", 2.35),
    ("C12I", 1.92),
    ("D3H", 2.01),
    ("D10V", 3.07),
    ("Y5K", 3.53),
    ("V14I", 2.57),
    ("G22R", 2.43),
    ("Y5V", 2.96),
    ("H1S", 2.81),
    ("G4H", 2.29),
]

### Prompt Query (variant): "Y5G" ; field requested: protein stability index
### Response 3.53

### Prompt Please look up its protein stability index: "C20F"
### Response 1.28

### Prompt Would you kindly share the measured protein stability index for "W15P" ?
### Response 3.6

### Prompt Could you share which protein stability index value was measured for "M6D" ?
### Response 2.96

### Prompt May I ask what protein stability index has been recorded for "C20G" ?
### Response 2.19

### Prompt Looking for the measured protein stability index of "C8D" , can you help?
### Response 3.19

### Prompt Need protein stability index of "C9S" , thanks.
### Response 3.81

### Prompt What does the record list as protein stability index for "M21R" ?
### Response 2.85

### Prompt Look at this variant and give its reported protein stability index. "D24M"
### Response 1.56

Recorded values, source the supplement of paper PMC10567573.
